The reported numbers originate from PubChem BioAssay (NCI).

Test: NCI Yeast Anticancer Drug Screen. Data for the mlh1 rad18 strain (AID 175)
Details: S. cerevisiae mlh1 rad18 strain growth inhibition; at 5.0 µM (retest, dose inferred, filed as 0.5)
The panel holds about 79,000 compounds, 15% with a hit somewhere; the sample as a whole holds those more often. Calls of active or inactive are those of the source. No stated cut-off is given here; in the data, active means growth inhibition above about 70%; inactive means the rest.
Labels: 1.0 for active, 0.0 for inactive

compound=c1ccc(C[As+](c2ccccc2)(c2ccccc2)c2ccccc2)cc1 classification=0.0
compound=S=C(S)N1CCOCC1 classification=0.0
compound="COC(=O)C(CCCN=C(N)N[N+](=O)[O-])NC(=O)c1ccc2c(c1O)C(=O)c1ccccc1C2=O (stereo not drawn)" classification=0.0
compound=O=C1C=CC(=O)C1(Br)Br classification=1.0
compound="CCC(C)N1CN(c2ccccc2)C2(CCN(CC3COc4ccccc4O3)CC2)C1=O (stereo not drawn)" classification=0.0
compound="CC1=C(O)C(=O)C=C2C1=CC=C1[C@@]2(C)CCC2(C)[C@@H]3C[C@@H](C)C(=O)C[C@]3(C)CC[C@]12C (stereo partly drawn)" classification=0.0
compound=[Cl][Sn]([c]1ccccc1)[c]1ccccc1 classification=0.0
compound=O=C1C(F)=C(N2CC2)C(=O)C(F)=C1N1CC1 classification=1.0
compound=S=c1[nH]c2ccccc2s1 classification=0.0
compound=CSCCl classification=0.0
compound=CC(=O)Nc1ccc(/C=N/N=C(/N)N[N+](=O)[O-])cc1 classification=0.0
compound=CS/C([S-])=N/N=C(C)C.CS/C([S-])=N/N=C(C)C.[Ni+2] classification=1.0
compound=CC(C)COP(=O)(OCC(C)C)C(=O)Nc1ccc(Cl)cc1 classification=0.0

---

Assay: NCI Yeast Anticancer Drug Screen. Data for the mec2-1 strain (AID 157)
Settings: S. cerevisiae mec2-1 strain, at 100.0 µM
This is part of a sample that, as a whole, favours compounds with a hit. Of some 79,000 tested, about 15% had one in any assay. Active and inactive are the calls of the source. Rule as the data show it: active = growth inhibition above about 70%; inactive = the rest.
Outcome codes: active, inactive

compound="CCCCCCCCCCCCCCCCP(=O)(O)OCC(N)C(=O)O (stereo unspecified)" classification=active
compound="CC1CCCN(CCc2ccccc2)CC1 (stereo unspecified)" classification=inactive
compound=CCN(CCCl)CCCCNc1c2ccccc2nc2ccc(OC)cc12 classification=active
compound=O=C(Nc1cc(Cl)ccc1Cl)C(Cl)(Cl)Cl classification=inactive
compound="CC[C@@]1(O)C[C@H](OC2CC(N(C)C)C(O)C(C)O2)c2c(O)c3c(c(O)c2[C@H]1OC1CC(N(C)C)C(O)C(C)O1)C(=O)c1cccc(O)c1C3=O (stereo partly specified)" classification=inactive
compound=CNC(=O)ON(C(C)=O)C(=O)NC classification=inactive
compound=CC1(C)N=C(N)N=C(N)N1c1cccc(N)c1.[Sn] classification=inactive
compound=Nc1nc(N)c(-c2ccc(Cl)c(Cl)c2)c(CP(Cl)(Cl)(Cl)Br)n1 classification=inactive
compound=Cc1cccc(NC(=O)CBr)c1 classification=active
compound="OC1CCCC2CCC[N-]C12.OC1CCCC2CCC[N-]C12.[O]=[V][OH] (stereo unspecified)" classification=active
compound=Cc1nc2ccccc2cc1C[N+]12CN3CN(CN(C3)C1)C2 classification=inactive

---

Experiment: NCI Yeast Anticancer Drug Screen. Data for the wt1 strain (AID 149);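 further: 0% = growth of vehicle-treated wt1 cultures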
Settings: S. cerevisiae wt1 strain (SPY 50644) growth inhibition; at 33.0 µM
The panel holds about 79,000 compounds, 15% with a hit somewhere; the sample as a whole holds those more often. The source made the active and inactive calls. No stated cut-off is given here; in the data, active means growth inhibition above about 70%; inactive means the rest.
Labels: 1.0 for active, 0.0 for inactive

compound="CCC(=O)OC1CCn2c1nc1c2C(=O)C(C)=C(N2CC2)C1=O (centres undefined)" classification=0.0
compound=O=c1oc2ccccc2c(O)c1C(c1ccc2ccccc2c1)c1c(O)c2ccccc2oc1=O classification=0.0
compound=Br[Se]c1ccccn1 classification=1.0
compound="COc1cc(C2c3cc4c(cc3[C@@H](Nc3ccc(N)cc3)C3COC(=O)[C@H]23)OCO4)cc(OC)c1O (some centres undefined)" classification=1.0
compound=C=C[C@H]1CN2CC[C@H]1C[C@@H]2[C@@H](O)c1ccnc2ccccc12 classification=0.0
compound="COc1cc([C@@H]2c3cc4c(cc3C[C@@H]3COC(=O)C32)OCO4)cc(OC)c1O (some centres undefined)" classification=1.0
compound=O=c1oc2ccccc2c(O)c1C(c1ccc2c(c1)Cc1ccccc1-2)c1c(O)c2ccccc2oc1=O classification=0.0
compound="CCNC(=O)OCC1C2=C(C(=O)C(C)=C(N)C2=O)N2CC3C(N3C)C12OC (centres undefined)" classification=0.0
compound="COC(=O)c1c(C)ccc2c(O)c3c(cc12)C(=O)c1c2c(cc(O)c1C3=O)C1(C)OC(C)(O2)C(O)C(N(C)C)C1O (centres undefined)" classification=1.0
compound="OC1CCCC2CCC[N-]C12.OC1CCCC2CCC[N-]C12.[O]=[V][OH] (centres undefined)" classification=1.0
compound="O=C1c2ccc3ccccc3c2CCC1N1CCCCC1 (centres undefined)" classification=0.0
compound=CNCC(O)c1ccc(O)c(O)c1.[Pt].c1ccc([PH+](c2ccccc2)c2ccccc2)cc1.c1ccc([PH+](c2ccccc2)c2ccccc2)cc1 classification=0.0
compound=COC(=O)C1=C(C(=O)OC)C2OC1c1cc3ccccc3cc12 classification=1.0
compound=C/C(=N\O)c1ccc2ccc3ccccc3c2c1 classification=0.0
compound="CCCCCCCCCCCCCCCCP(=O)(O)OP(=O)(O)OCC1OC(n2ccc(N)nc2=O)C(O)C1O (centres undefined)" classification=0.0
compound="CC(C)CC(NC(=O)C(N)C(C)C)C(=O)NC(CCCCN)C(=O)Nc1ccc(N(CCCl)CCCl)cc1 (centres undefined)" classification=0.0
compound=N#Cc1cc(N(CCCl)CCCl)c([N+](=O)[O-])cc1[N+](=O)[O-] classification=0.0
compound=CC[C@@]1(O)C(=O)OCc2c1cc1n(c2=O)Cc2cc3c(NC(=O)CN)cccc3nc2-1 classification=0.0
compound="CCC1(OC(=O)CN)C(=O)OCc2c1cc1n(c2=O)Cc2cc3ccccc3nc2-1 (centres undefined)" classification=1.0
compound="O=[N+]([O-])O.[NH-]C1CCCCC1[NH-].[NH-]C1CCCCC1[NH-].[NH-]C1CCCCC1[NH-].[OH-].[OH-].[OH-].[Pt+4].[Pt+4].[Pt+4] (centres undefined)" classification=0.0
compound="CNC(=O)OCC1C2=C(C(=O)C(C)=C(N)C2=O)N2CC3C(N3C)C12OC (centres undefined)" classification=0.0
compound=O=C1C=C(CN(CCCl)CCCl)C(=O)C=C1CN(CCCl)CCCl classification=0.0
compound="C[C@]12CCC(=O)C=C1CC[C@@H]1C2CC[C@@]2(C)C1CC[C@@H]2OC(=O)C12OC1CCC2=O (some centres undefined)" classification=0.0
compound="Cc1ccc2c(c1)C1(C)c3cc(C)ccc3SP1S2 (centres undefined)" classification=0.0
compound=CCc1cccc(C(C)C)c1NC1=C([n+]2ccc(C)cc2)C(=O)c2ccccc2C1=O classification=0.0
compound=Nc1nc(-c2ccccc2)c(-c2ccccc2)[se]1 classification=0.0
compound="CCC1(O)C(=O)OCc2c1cc1n(c2=O)Cc2cc3cc(Cl)ccc3nc2-1 (centres undefined)" classification=0.0
compound="Cc1c(N)nc([C@H](CC(N)=O)NC[C@H](N)C(N)=O)nc1C(=O)N[C@H](C(=O)N[C@H](C)[C@@H](O)[C@H](C)C(=O)N[C@H](C(=O)NCCc1nc(-c2nc(C(=O)NCCC[S+](C)C)cs2)cs1)[C@@H](C)O)C(OC1OC(CO)C(O)C(O)C1OC1OC(CO)C(O)C(OC(N)=O)C1O)c1cnc[nH]1 (some centres undefined)" classification=0.0
compound=COc1ccc(/C=C(/C)[N+](=O)[O-])cc1 classification=1.0

---

Test: NCI Yeast Anticancer Drug Screen. Data for the mgt1 strain (AID 153)
Conditions: S. cerevisiae mgt1 mutant growth inhibition; at 3.7 µM; hits give high values
The panel holds about 79,000 compounds, 15% with a hit somewhere; the sample as a whole holds those more often.
testReadout: growth inhibition (%)

molecule="O=C1c2ccc3ccccc3c2CCC1N1CCCCC1 (centres undefined)" unitssymbol=% val=10
molecule=COc1ccc(OC)c(/C=C/[N+](=O)[O-])c1 unitssymbol=% val=-2
molecule=CC[C@@]1(O)C(=O)OCc2c1cc1n(c2=O)Cc2cc3ccccc3nc2-1 unitssymbol=% val=6
molecule="C/C(=N\\N=C(N)N)C(CN1CCOCC1)C(c1ccccc1)c1c(O)c2ccccc2oc1=O (centres undefined)" unitssymbol=% val=-2
molecule="NC1=NCC(c2ccc(Cl)cc2)O1 (centres undefined)" unitssymbol=% val=-4
molecule=S=C1NC2(CCCCC2)NC12CCCCC2 unitssymbol=% val=-8
molecule=CC[C@](O)(C(=O)O)c1cc2n(c(=O)c1CO)Cc1cc3ccccc3nc1-2 unitssymbol=% val=7
molecule=Oc1c(Br)cc(Br)cc1Br unitssymbol=% val=1
molecule=CCN(CCCl)CCCCNc1c2ccccc2nc2ccc(OC)cc12 unitssymbol=% val=14
molecule="CCC1(O)C(=O)OCc2c1cc1n(c2=O)Cc2cc3cc(Cl)ccc3nc2-1 (centres undefined)" unitssymbol=% val=19
molecule=CCc1cccc(C(C)C)c1NC1=C([n+]2ccc(C)cc2)C(=O)c2ccccc2C1=O unitssymbol=% val=-1
molecule=Cn1cc(NC(=O)c2cc(NC(=O)CN=C(N)N)cn2C)cc1C(=O)NCCC(=N)N unitssymbol=% val=6
molecule="OC1CCCC2CCC[N-]C12.OC1CCCC2CCC[N-]C12.[O]=[V][OH] (centres undefined)" unitssymbol=% val=88
molecule=O=C(O)CCCc1cc(I)c(N(CCCl)CCCl)c(I)c1 unitssymbol=% val=-42
